B1: HSP90AB1 (parent)
chain: QVANSAFVERVRKRGFEVVYMTEP

Variants of: B1
Assay: protein stability index of a GFP-peptide fusion (GPS, HEK-293T) (PSI 1-6); higher = more stable;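 further: lentivirally expressed fusions sorted by FACS into six bins by GFP to DsRed ratio, PSI derived from sequencing read proportions per bin multiplied by bin number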
Details: c terminus: a fixed tail appended
# protein stability index per record follows
API note: the answer field is a bare number with no unit suffix.

mutation.annotation: S5E
quantitative.readout: 2
--
mutation.annotation: R12C
quantitative.readout: 1.98

Attention now shifts to the item below.
Q. Name the reported protein stability index value associated with the variant V2L
A. 2.01
